Source listed as patent EP0908457B1.

- Test system: Oryza sativa, (L.) Tebonnet
- assay protocol: Rice tolerance to post-transplant applications under flooded paddy conditions (Example 187), ORYSAT (Rice, Tebonnet); on herbicidal effect rating ORYSAT: meaning of each grade not given here
- test context: Rate 0.2500 kg/ha, rated three to four weeks after treatment
We use 6 as the dividing line for herbicidal effect rating ORYSAT: on or above the line is 1.0, below is 0.0.

{"columns": ["molecule", "class"],
 "data": [
  ["CC(=O)NCCOC(=O)c1nsc2ccc(-n3c(=O)cc(C(F)(F)F)n(C)c3=O)cc12", 0.0],
  ["CCCCCCCCCCCCS(=O)(=O)NC(=O)c1nsc2ccc(-n3c(=O)cc(C(F)(F)F)n(C)c3=O)cc12", 0.0],
  ["C[C@H](Br)[C@H](Br)c1nsc2ccc(-n3c(=O)cc(C(F)(F)F)n(C)c3=O)cc12", 1.0],
  ["C=C(Cl)COC(=O)c1nsc2ccc(-n3c(=O)cc(C(F)(F)F)n(C)c3=O)cc12", 0.0],
  ["CCCCS(=O)(=O)NC(=O)C(C)Oc1ccc(C)cc1-c1nsc2ccc(-n3c(=O)cc(C(F)(F)F)n(C)c3=O)cc12 (stereo not drawn)", 0.0],
  ["CNC.Cn1c(C(F)(F)F)cc(=O)n(-c2ccc3snc(CSCC(=O)NS(C)(=O)=O)c3c2)c1=O", 0.0],
  ["COC(=O)COc1cccc(-c2nsc3ccc(-n4c(=O)cc(C(F)(F)F)n(C)c4=O)cc23)c1", 1.0],
  ["CC(C)Oc1cccc(-c2nsc3ccc(-n4c(=O)cc(C(F)(F)F)n(C)c4=O)cc23)c1", 0.0],
  ["CC(C)C=C(C#N)c1nsc2ccc(-n3c(=O)cc(C(F)(F)F)n(C)c3=O)cc12", 0.0],
  ["C=CCC(C#N)(CC=C)c1nsc2ccc(-n3c(=O)cc(C(F)(F)F)n(C)c3=O)cc12", 1.0],
  ["Cn1c(C(F)(F)F)cc(=O)n(-c2ccc3snc(C(=O)NS(=O)(=O)c4ccc(Cl)cc4)c3c2)c1=O", 0.0],
  ["COC(=O)C(C)Oc1cccc(-c2nsc3ccc(-n4c(=O)cc(C(F)(F)F)n(C)c4=O)cc23)c1 (stereo not drawn)", 0.0]
]}

---

- Tested on: Oryza sativa, (L.) Tebonnet
- assay protocol: Rice tolerance to post-transplant applications under flooded paddy conditions (Example 187), ORYSAT (Rice, Tebonnet)
- test context: 0.2500 kg/ha, herbicidal effect rating 0-9, three to four weeks after treatment
# label = condition met if ORYSAT >= 3 else condition not met

{"columns": ["compound", "class"],
 "data": [
  ["CCCCC(=O)c1nsc2ccc(-n3c(=O)cc(C(F)(F)F)n(C)c3=O)cc12", "condition met"],
  ["Cn1c(C(F)(F)F)cc(=O)n(-c2ccc3snc(C(=O)NS(=O)(=O)Cc4ccccc4[N+](=O)[O-])c3c2)c1=O", "condition not met"],
  ["Cn1c(C(F)(F)F)cc(=O)n(-c2ccc3snc(C(=O)OCCCO)c3c2)c1=O", "condition met"],
  ["COc1cc(C(Br)Br)ccc1-c1nsc2ccc(-n3c(=O)cc(C(F)(F)F)n(C)c3=O)cc12", "condition met"],
  ["Cn1c(C(F)(F)F)cc(=O)n(-c2ccc3snc(COC4CCCCO4)c3c2)c1=O (centres unmarked)", "condition met"],
  ["CN(C(=O)COc1ccccc1-c1nsc2ccc(-n3c(=O)cc(C(F)(F)F)n(C)c3=O)cc12)S(C)(=O)=O", "condition met"]
]}
